The measurements presented in this section are drawn from ChEMBL document CHEMBL3271999.

System: Mucor
assay.info: Antifungal activity against Mucor species assessed as lowest dose level for total inhibition of fungal growth
Type: functional
measured.metric: Activity (µg/mL)

                                   compound  reported_result
0  Clc1ccc(CC(Cn2ccnc2)c2ccc(Cl)cc2Cl)cc1.O=[N+]([O-])O (stereo not drawn)              100
1  Clc1ccc(C(CCc2ccccc2)Cn2ccnc2)c(Cl)c1.O=[N+]([O-])O (stereo not drawn)              100
2  COc1ccc(CCC(Cn2ccnc2)c2ccc(Cl)cc2Cl)cc1.O=[N+]([O-])O (stereo not drawn)              100
